# Target Or System: T1, PSMA Fab
# T1 construct: also called Anti-PSMA Fab; 006 PSMA Fab
# Experiment Summary: clonal phage ELISA; biotinylated PSMA Fab on neutravidin plate, wells pre-incubated with PSMA antigen as competitor; anti-M13 HRP detection;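 also: crude clonal phage supernatants added to antigen-treated wells without a wash, incubated briefly, then bound phage read out via horse radish–conjugated anti-M13 antibody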
Label scheme for Phage binding ELISA signal, Anti-PSMA Fab with PSMA antigen: lower than 0.08 is F, 0.08 and above is T.

Here's what some known entries look like.
{"columns": ["Binder", "Label Value"],
 "data": [
  ["ETPRCVPWWMCIDI [Phage-3751]", "F"],
  ["EAKVCKPAWMCDGL [Phage-3754]", "F"],
  ["MEPVCLPEWMCWGF [Phage-3747]", "T"],
  ["EQPACVPKWMCIGF [Phage-3750]", "T"],
  ["YHKECIPPWMCMGF [Phage-3756]", "T"]
]}

Entry FELYCVPAWMCSGF [Phage-3753] : is its Phage binding ELISA signal, Anti-PSMA Fab with PSMA antigen no less than 0.08? T

Say whether VMPRCEPIWMCRGF [Phage-3746] shows Phage binding ELISA signal, Anti-PSMA Fab with PSMA antigen of 0.08 or more. F

# bool: Phage binding ELISA signal, Anti-PSMA Fab with PSMA antigen of NSSLCIPSWMCSGF [Phage-3752] >= 0.08 F

Hi team, for TIMYCKPTWMCTGF [Phage-3757] , is the recorded Phage binding ELISA signal, Anti-PSMA Fab with PSMA antigen at or above 0.08? F
